assay: label from the status in PepcDB records
QUANTITY_MEASURED: protein production

MAHPPQIRIPATYLRGGTSKGVFFRLEDLPESCRVPGEARDRLFMRVIGSPDPYAAHIDGMGGATSSTSKCVILSKSSQPGHDVDYLYGQVSIDKPFVDWSGNCGNLSTGAGAFALHAGLVDPARIPEDGICEVRIWQANIGKTIIAHVPVSGGQVQETGDFELDGVTFPAAEIVLEFLDPSDDGEDGGAIFPTGNLVDDLEVPGVGTFKATMINAGIPTVFVNAEEIGYRGTELREEINGDPQQLARFERIRVAGALRMGLIKTPEEAATRQHTPKIAFVAPPRDYRTASGKLVAAGDIDLLVRALSMGKLHHAMMGTAAVAIGTAAAIPGTLVNLAAGGGERSAVRFGHPSGTLRVGAEASQANGEWTVTKAIMSRSARILMEGWVRVPGDAF	not failed
MRISFVGSGKVATHLAKAFAQQHQIIQIMSRNLPHAEKLAHQVGACAIDNYSQIEQEIDLLVIAVSDQSISSVIQAVHVFVPEQLIVHTSGSTDVKILSDIHSNAGVFYPLQTFSFERDIHWSDTPLLIEAEQANSLSILNALANSLTKRVYHYSSTQRLSLHLAAVFACNFSNYCYDMAKQTVDQAQVDFSLLYPLILETAKKATQHDPVQVQTGPAVRHDHNIVELHQNLLLKANRPDLKDIYQRLSQAIIARHHTQP	failed
MRLDKFIAQQLGVSRAIAGREIRGNRVTVDGEIVRNAAFKLLPEHDVAYDGNPLAQQHGPRYFMLNKPQGYVCSTDDPDHPTVLYFLDEPVAWKLHAAGRLDIDTTGLVLMTDDGQWSHRITSPRHHCEKTYLVTLESPVADDTAEQFAKGVQLHNEKDLTKPAVLEVITPTQVRLTISEGRYHQVKRMFAAVGNHVVELHRERIGGITLDADLAPGEYRPLTEEEIASVV	not failed
MIMKISMAMCKQPLPPSPTLDFPPARFGPNMLTLNPYGPKDKVVVIMGATGTGKSRLSVDIATRFRAEIINSDKIQVHQGLDIVTNKITSEESCGVPHHLLGVLPPEADLTAANYCHMANLSIESVLNRGKLPIIVGGSNSYVEALVDDKENKFRSRYDCCFLWVDVALPVLHGFVSERVDKMVESGMVEEVREFFDFSNSDYSRGIKKAIGFPEFDRFFRNEQFLNVEDREELLSKVLEEIKRNTFELACRQREKIERLRKVKKWSIQRVDATPVFTKRRSKMDANVAWERLVAGPSTDTVSRFLLDIASRRPLVEASTAVAAAMERELSRCLVA	failed

From here, focus on the item given below.
What the record says about MAVYHLLLSSPPSLLLLPPSPRRPNLTLIRRIPAHPRLGNSTSLLSSSSPVIRKILVRSTLREDQPIASDSESSPTLLIGEDSAAFELGKQKLVSWVYFGVVLGVVLFILNVVWIDNSTGFGKSFIDAVSNISGSPEVAMLMLILIFAIVHSGLASLRDIGEKLIGERAFRVLFAGISLPLAMSTIVYFINHRYDGSQLWQLQGVPGVHEAIWVANFVSFFFLYPSTFNLLEVAAVDKPKMHLWETGIMRITRHPQMVGQIVWCLAHTLWIGNTVAASASLGLIAHHLFGAWNGDRRLAKRYGEDFESIKKRTSVIPFAAIFEGRQVLPEDYYKEFVRLPYLAITALTVGAYFAHPLMQGASFRLHW : protein production is failed

Hey, just so you know, these numbers are from a protein production outcome set (Wang et al. 2014).
